pKi: −log10 of the molar value.
The following compounds each carry a recorded pKi for Prothrombin (Homo sapiens).
measuredQuantity: pKi

COC[C@H]1ON=C(c2cccc(C(=N)N)c2)[C@@H]1C(=O)Nc1ccc(-c2ccccc2S(N)(=O)=O)cc1 ... 5.34
COCc1onc(-c2cccc(C(=N)N)c2)c1C(=O)Nc1ccc(-c2ccccc2S(N)(=O)=O)cc1 ... 5.42
N=C(N)c1cccc(C2=NO[C@H](Cn3cnnn3)[C@H]2C(=O)Nc2ccc(-c3ccccc3S(N)(=O)=O)cc2)c1 ... 5.24
COCc1onc(-c2cccc(C(=N)N)c2)c1C(=O)Nc1ccc(-c2ccccc2S(N)(=O)=O)cn1 ... 4.92
N=C(N)c1cccc(-c2noc(C(F)(F)F)c2C(=O)Nc2ccc(-c3ccccc3S(N)(=O)=O)cc2)c1 ... 4.96
C[C@H]1ON=C(c2cccc(C(=N)N)c2)[C@@H]1C(=O)Nc1ccc(-c2ccccc2S(N)(=O)=O)cc1 ... 5.35
N=C(N)c1cccc(-c2noc(CO)c2C(=O)Nc2ccc(-c3ccccc3S(N)(=O)=O)cc2)c1 ... 5.72

====

Target: Coagulation factor X (Oryctolagus cuniculus, UniProt O19045)
Sequence (O19045 whole entry): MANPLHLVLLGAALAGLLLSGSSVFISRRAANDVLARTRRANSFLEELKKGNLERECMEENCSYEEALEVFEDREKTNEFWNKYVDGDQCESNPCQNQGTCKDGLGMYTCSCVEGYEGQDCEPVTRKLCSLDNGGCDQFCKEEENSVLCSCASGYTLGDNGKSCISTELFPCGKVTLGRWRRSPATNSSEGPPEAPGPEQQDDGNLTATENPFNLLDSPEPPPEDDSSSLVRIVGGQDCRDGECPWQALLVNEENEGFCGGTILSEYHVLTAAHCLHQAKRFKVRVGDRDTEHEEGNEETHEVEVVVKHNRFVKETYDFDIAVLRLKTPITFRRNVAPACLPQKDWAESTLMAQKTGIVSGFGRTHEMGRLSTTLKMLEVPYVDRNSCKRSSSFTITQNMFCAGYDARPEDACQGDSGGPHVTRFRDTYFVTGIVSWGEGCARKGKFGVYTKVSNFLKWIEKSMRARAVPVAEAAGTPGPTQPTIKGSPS
pKi: −log10 of the molar value.
# pKi listing for each entry below
measuredQuantity: pKi

N=C(N)c1cccc(-c2nocc2C(=O)Nc2ccc(-c3ccccc3S(N)(=O)=O)cc2)c1 ... 9.40
COC[C@H]1ON=C(c2cccc(C(=N)N)c2)[C@@H]1C(=O)Nc1ccc(-c2ccccc2S(N)(=O)=O)cc1 ... 9.19
COCC1(C(=O)Nc2ccc(-c3ccccc3S(N)(=O)=O)cc2)CC(c2cccc(C(=N)N)c2)=NO1 (stereo not drawn) ... 9.10
